System: diploid fibroblasts originating in the skin of a normal person (NB1RGB)
TEST DESCRIPTION: Test for confirming effect of preventing ultraviolet light (UVB) disorder, NB1RGB cells
Type: cell-based, human
EXPERIMENTAL SETUP: 1 mM chromanol glycoside, UVB 312 nm 60 mJ/cm^2, 72 h culture, neutral red, non-irradiated = 100%
# Survival ratio (%) per entry

COMPOUND	Survival ratio (%)
Cc1c(C)c2c(c(C)c1O)CCC(C)(C[C@@H]1O[C@H](CO)[C@H](O)[C@H](O)[C@H]1O)O2 (stereo partly shown)	83
Cc1c(C)c2c(c(C)c1O)CCC(C)(C[C@H]1O[C@H](CO)[C@@H](O)[C@H](O)[C@@H]1O)O2 (stereo partly shown)	79
Cc1c(C)c2c(c(C)c1O)CCC(C)(C[C@H]1O[C@H](CO)[C@@H](O)[C@H](O)[C@H]1O)O2 (stereo partly shown)	78
Cc1c(C)c2c(c(C)c1O)CCC(C)(C[C@]1(CO)O[C@H](CO)[C@@H](O)[C@@H]1O)O2 (stereo partly shown)	81
